Sourced from PubChem BioAssay AID488857

Listed next: entries and their corresponding inhibition.
assay-remarks: ASC/caspase-1 reporter retest in S. cerevisiae at one dose, specificity check for NALP1 project (AID 488857)
assay-conditions: S. cerevisiae ASC/Caspase-1, beta-galactosidase luminescence, 24 h; at 10 µM; active compounds read high
The campaign covered roughly 1,400 compounds. About 560 (40%) were called active. The set was probably picked from earlier hits. This is one part of the list.

INSERT INTO measurements (compound, result) VALUES
  ('O=C(CC(O)(C(F)(F)F)C(F)(F)F)Nc1ccc(Cl)c(Cl)c1', '97% (active)'),
  ('CN1CCN(C(=S)Nc2ccc(Cl)c(Cl)c2)CC1', '31.7% (inactive)'),
  ('CCC(C(=O)OC)n1cnc2scc(-c3ccc(C)c(C)c3)c2c1=O (stereo unspecified)', '98.5% (active)'),
  ('CN(C)S(=O)(=O)c1ccc(N2CCCC2)c(C(=O)Nc2nc3ccccc3s2)c1', '42.1% (inactive)'),
  ('Cc1ccc(NC(=S)Nc2ccc(Cl)c(Cl)c2)c(OC(F)F)c1', '45.8% (inactive)');

Prompt: I would be grateful if you could share the reported inhibition for "COc1ccc2cnn(-c3ccc(C)cc3)c(=O)c2c1OC" .
Completion: 44% (inactive)

* * *

assay-remarks: ASC/caspase-1 reporter retest in S. cerevisiae at one dose, specificity check for NALP1 project (AID 488857)
assay-conditions: S. cerevisiae ASC/Caspase-1, beta-galactosidase luminescence, 24 h; at 10 µM
The campaign covered roughly 1,400 compounds. About 560 (40%) were called active.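 Rule for the calls: active = mean inhibition over duplicate tests at 10 µM above 50%; inactive = the rest.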 So high a share suggests a set chosen from earlier hits. The list shows a part of the results.
Pick one and only one: Yes = active, No = inactive

INSERT INTO measurements (molecule, assigned_class) VALUES
  ('CCC(C)NCCOc1cccc(Br)c1 (centres undefined)', 'No');

Prompt: Could you kindly confirm the outcome this assay logged for "CN(C)C(=N)c1n[nH]nc1SCc1ccccc1" ?
Completion: No

Prompt: Ok, now "CCOC(=O)C(=O)NNc1ccc(Cl)cc1"
Completion: No

Prompt: Ok, now "COC1=C(N)C(=O)c2nc(-c3nc(C(=O)O)c(C)c(-c4ccc(OC)c(OC)c4O)c3N)ccc2C1=O"
Completion: No

Prompt: Ok, now "CCOC(=O)Nc1ccc2c(C)cc(=O)oc2c1"
Completion: Yes

Prompt: Ok, now "COc1cc(-c2nc(C(F)(F)F)c(OC)o2)cc(OC)c1OC"
Completion: No

Prompt: Ok, now "CCOC(=O)c1sc(NC(=O)Nc2cccc(Cl)c2)cc1C"
Completion: No

Prompt: Ok, now "O=C(CCSc1nc2cc(Cl)ccc2o1)N1CCOCC1"
Completion: No

Prompt: Ok, now "CN1CCN(C2=C(Cl)C(=O)C(c3cnc(N4CCCCC4)s3)=C(Cl)C2=O)CC1"
Completion: No

Prompt: Ok, now "CCOC(=O)NC1(NCc2ccccc2)Oc2ccccc2O1"
Completion: No

Prompt: Ok, now O=C(c1nnsc1S(=O)c1ccc(Cl)cc1)N1CCOCC1 (centres undefined)
Completion: Yes

Prompt: Ok, now COc1ccc(CCN(C)C2CC(=O)N(c3ccccc3)C2=O)cc1OC (centres undefined)
Completion: Yes

Prompt: Ok, now CNC(=O)c1nnsc1S(=O)c1ccc(Cl)cc1 (centres undefined)
Completion: Yes

Prompt: Ok, now C=C(C)C1CC=C(C)/C(=N/NC(=O)c2ccoc2C)C1 (centres undefined)
Completion: No

Prompt: Ok, now "O=C(/C=C/c1c[nH]c2ccccc12)c1ccccc1"
Completion: Yes

Prompt: Ok, now "CCOC(=O)Nc1cccc(Nc2ccccc2)c1"
Completion: Yes

* * *

assay-remarks: ASC/caspase-1 reporter retest in S. cerevisiae at one dose, specificity check for NALP1 project (AID 488857)
assay-conditions: S. cerevisiae ASC/Caspase-1, beta-galactosidase luminescence, 24 h; at 10 µM; active compounds read high
In all, about 1,400 compounds went through this assay and about 560 (40%) were called active. The set was probably picked from earlier hits. Some of the results follow.
Listed next: entries and their corresponding inhibition.
State just the number; it will be interpreted in %.

INSERT INTO measurements (molecule, quantity, numeric_value) VALUES
  ('O=[N+]([O-])c1ccc(N2CCN(C(=S)Nc3ccccc3)CC2)cc1', 'inhibition', 35.5);

Prompt: I would be grateful if you could share the reported inhibition for "CC(=O)NS(=O)(=O)c1ccc(NC(=O)CSc2ccccc2)cc1" .
Completion: 18.9

Prompt: Ok, now "CCc1cccc2c(C(=O)COC(=O)c3ccccc3)c[nH]c12"
Completion: 43.6

Prompt: Ok, now "c1ccc2cc(CSCc3nc4ccccc4[nH]3)ccc2c1"
Completion: 71.4

Prompt: Ok, now "COc1ccc(Nc2ncccc2C(=O)NCc2ccccc2)cc1"
Completion: 67

Prompt: Ok, now "Cc1cc2ccccc2n1CCNCc1c(C(=O)N2CCOCC2)nc2ccccn12"
Completion: 21.8

* * *

assay-remarks: ASC/caspase-1 reporter retest in S. cerevisiae at one dose, specificity check for NALP1 project (AID 488857)
assay-conditions: S. cerevisiae ASC/Caspase-1, beta-galactosidase luminescence, 24 h; at 10 µM; active compounds read high
The campaign covered roughly 1,400 compounds. About 560 (40%) were called active. The set was probably picked from earlier hits. The list shows a part of the results.
Listed next: entries and their corresponding inhibition.
State just the number; it will be interpreted in %.

INSERT INTO results (molecule, quantity, unit_label, numeric_value) VALUES
  ('O=C(Nc1ccc(Br)c(Cl)c1)C1CC1', 'inhibition', '%', 51);

Prompt: I would be grateful if you could share the reported inhibition for CCOC(=O)C1CCCCN1Cc1ccc(F)c(Br)c1 (stereo unspecified) .
Completion: 40.2

Prompt: Ok, now Cc1cc(C)cc(NS(=O)(=O)c2ccc(NC(=O)C3CCCCC3C(=O)O)cc2)c1 (stereo unspecified)
Completion: 26.8

Prompt: Ok, now "CC(=O)Nc1cccc(OCCCNC(=O)C2CCC2)c1"
Completion: 39.1

Prompt: Ok, now "CCOC(=O)C1CCN(C(=O)c2cc3cc4cc(OC)ccc4nc3o2)CC1"
Completion: 52

Prompt: Ok, now "CC(C)C(=O)c1cc2c(cc1NC(=O)Nc1cccc3ccccc13)OCCO2"
Completion: 49.3

Prompt: Ok, now "CCc1ccc(S(=O)(=O)/N=C2/C=C(Sc3ncn[nH]3)C(=O)c3ccccc32)cc1"
Completion: 96

* * *

assay-remarks: ASC/caspase-1 reporter retest in S. cerevisiae at one dose, specificity check for NALP1 project (AID 488857)
assay-conditions: S. cerevisiae ASC/Caspase-1, beta-galactosidase luminescence, 24 h; at 10 µM; active compounds read high
Screen size: about 1,400 compounds; about 560 (40%) were called active. So high a share suggests a set chosen from earlier hits. This is one part of the list.
quantity: inhibition (%)
State just the number; it will be interpreted in %.

INSERT INTO assay_data (smiles_input, numeric_value) VALUES
  ('N#Cc1ccc(NC(=O)Nc2ccc(Cl)cc2)cc1', 96.4);

Prompt: I would be grateful if you could share the reported inhibition for "O=C(Nc1ccc2c(c1)Cc1ccccc1-2)c1ccncc1" .
Completion: 74.5

Prompt: Ok, now "CCc1cccc2c(C(=O)CSc3nncn3-c3ccc(OC)cc3)c[nH]c12"
Completion: 38.1

Prompt: Ok, now "CS(=O)(=O)N(Cc1ccccc1)c1ccc(C(=O)Nc2cccnc2)cc1"
Completion: 36

Prompt: Ok, now "O=C(Nc1ccc(Cl)c(Cl)c1)c1ccncc1"
Completion: 44.9

Prompt: Ok, now "O=C(Nc1ccc2nc3ccccc3nc2c1)c1ccccc1"
Completion: 90.7

Prompt: Ok, now "Cc1ccc2sc(N(CCCN(C)C)C(=O)CCS(=O)(=O)c3ccccc3)nc2c1C"
Completion: 92.2

* * *

assay-remarks: ASC/caspase-1 reporter retest in S. cerevisiae at one dose, specificity check for NALP1 project (AID 488857)
assay-conditions: S. cerevisiae ASC/Caspase-1, beta-galactosidase luminescence, 24 h; at 10 µM
In all, about 1,400 compounds went through this assay and about 560 (40%) were called active.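 Rule for the calls: active = mean inhibition over duplicate tests at 10 µM above 50%; inactive = the rest.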 So high a share suggests a set chosen from earlier hits. Some of the results follow.
Pick one and only one: True for active, False for inactive

Prompt: Could you kindly confirm the outcome this assay logged for "CCCCNCCOCCOc1ccccc1-c1ccccc1" ?
Completion: True

Prompt: Ok, now Cc1cccc(N2C(=O)CC(Sc3ccccc3C(=O)O)C2=O)c1 (stereo unspecified)
Completion: False

Prompt: Ok, now CCN(CC)C1CC(=O)N(c2cccc(C)c2)C1=O (stereo unspecified)
Completion: True

Prompt: Ok, now "O=C(/C=C/c1cccs1)c1cc(Br)ccc1OC(=O)N1CCOCC1"
Completion: False

Prompt: Ok, now "CC1(C)CC(=O)c2cc(C(=O)O)c(=O)n(-c3ccccc3)c2C1"
Completion: False

* * *

assay-remarks: ASC/caspase-1 reporter retest in S. cerevisiae at one dose, specificity check for NALP1 project (AID 488857)
assay-conditions: S. cerevisiae ASC/Caspase-1, beta-galactosidase luminescence, 24 h; at 10 µM; active compounds read high
In all, about 1,400 compounds went through this assay and about 560 (40%) were called active. The set was probably picked from earlier hits. The list shows a part of the results.
Please use 1 whenever inhibition is not below 50%, and -1 whenever it is.

Prompt: Record "O=C(COC(=O)C1(c2ccccc2F)CCCC1)N1CCOCC1" ; criterion: inhibition no lower than 50%. Met?
Completion: -1

Prompt: Ok, now CCC(=O)c1ccc(OCC(O)CN2CCN(c3cccc(C(F)(F)F)c3)CC2)cc1 (stereo not drawn)
Completion: 1

Prompt: Ok, now "Cc1cccc(C(=O)NCc2ccc(S(N)(=O)=O)cc2)c1[N+](=O)[O-]"
Completion: -1

Prompt: Ok, now "Cc1ccc(CSCCNC(=O)CSCc2ccc([N+](=O)[O-])cc2)cc1"
Completion: 1

Prompt: Ok, now "CCCCCCNc1nc(NCc2ccco2)nc(OCC)n1"
Completion: 1

Prompt: Ok, now "COc1cccc(CNC(=O)CSc2ccc(-c3ccncc3)nn2)c1"
Completion: -1

Prompt: Ok, now "O=C(CSc1nc(-c2ccccc2)cs1)Nc1cccc([N+](=O)[O-])c1"
Completion: 1

Prompt: Ok, now CC1=C(C(=O)Nc2ccc(Cl)cc2)C(c2ccco2)NC(=O)N1 (stereo not drawn)
Completion: -1

Prompt: Ok, now "O=C(Nc1ccc(Cl)cc1)C1=Cc2ccccc2OC1"
Completion: 1

Prompt: Ok, now "CCn1c2ccccc2c2cc(NC(=O)c3ccc(C)c([N+](=O)[O-])c3)ccc21"
Completion: -1

Prompt: Ok, now "CSc1ccc(CN(C)CC(=O)Nc2ccc(C)cc2Br)cc1"
Completion: 1

Prompt: Ok, now "COc1ccccc1OCCN1CSC(=S)N(C)C1"
Completion: 1

Prompt: Ok, now "Cn1cc(S(=O)(=O)N2CCN(c3cccc(C(F)(F)F)c3)CC2)c(=O)n(C)c1=O"
Completion: -1

Prompt: Ok, now "CCOc1ccccc1C(=O)OCC(=O)Nc1ccc(N2CCCCC2)cc1"
Completion: 1

Prompt: Ok, now "Nc1[nH]c(=O)ncc1F"
Completion: 1

Prompt: Ok, now "COCCNC(=O)CCc1ccc(S(=O)(=O)Nc2ccc(C)cc2)cc1"
Completion: -1

Prompt: Ok, now "O=C(Nc1ccc(F)cc1)c1cccnc1N1CCCCC1"
Completion: -1

Prompt: Ok, now CCOC(=O)N1CCN(CC(O)COc2ccccc2C(C)(C)C)CC1 (stereo not drawn)
Completion: -1

Prompt: Ok, now "CCCc1nc2ccc(NC(=O)c3ccco3)cc2c(=O)n1Cc1ccccc1Cl"
Completion: -1

Prompt: Ok, now "C/C(=C(\C#N)C(=O)NCc1ccccc1)N(C)C"
Completion: -1

Prompt: Ok, now "O=C(CNC(c1ccccc1)c1ccccc1)Nc1c(F)cccc1F"
Completion: -1
